# assay_system: UniProt P23219
# protocol_notes: Assay for COX-1 activity (PGE2 ELISA)
# stated_conditions: read-out: COX-1 IC50; 10–20 minutes pre-incubation, reaction stopped after ten minutes, pH 8.0
observable: IC50 (µM)

- molecule: "O=C(O)C1=Cc2cc(Cl)c(Oc3ccccc3)cc2OC1C(F)(F)F (stereo not drawn) [Example 177]"
  assay_system: "UniProt P23219"
  IC50, µM: 0.3

P. COc1ccc(Oc2cc3c(cc2Cl)C=C(C(=O)O)C(C(F)(F)F)O3)cc1 (stereo not drawn) [Example 183]
Q. O=C(O)C1=Cc2cc(Cl)c(Cl)cc2SC1C(F)(F)F (stereo not drawn) [Example 154]
R. COc1ccc(Oc2ccc3c(c2)C=C(C(=O)O)C(C(F)(F)F)O3)cc1 (stereo not drawn) [Example 7]
Query: Order the records so the highest IC50 appears first and the lowest last. To answer, arrange all of the labels according to the requested order.
Result: Q, P, R
(Q: 37 µM, P: 4.1 µM, R: 1 µM)

a. O=C(O)C1=Cc2cc(Cl)cc(-c3ccccc3)c2OC1C(F)(F)F (stereo not drawn) [Example 129]
b. COc1cc(Cl)c2c(c1)C=C(C(=O)O)C(C(F)(F)F)O2 (stereo not drawn) [Example 40]
Query: Lower value for measured IC50? Options: a , b Kindly state the label of the option you pick.
Result: a
(a: 0.3 µM, b: 43 µM)

* * *

melting point: recorded values

- molecule: "O=C(O)C1=Cc2cc(C(F)(F)C(F)(F)F)ccc2OC1C(F)(F)F (centres unmarked)"
  melting point: "162.3 to 164.7 °C"
- molecule: "O=C(O)C1=Cc2cc(C(F)(F)F)ccc2NC1C(F)(F)F (centres unmarked)"
  melting point: "150 to 156 °C"
- molecule: "COc1cccc(-c2cc(Cl)cc3c2OC(C(F)(F)F)C(C(=O)O)=C3)c1 (centres unmarked)"
  melting point: "173.1 to 177.4 °C"
- molecule: "O=C(O)C1=Cc2cc(Cl)c(S(=O)(=O)c3ccc(Cl)cc3)cc2OC1C(F)(F)F (centres unmarked)"
  melting point: "240.4 to 241.5 °C"

Query: Consider the molecule O=C(O)C1=Cc2cc(Cl)c(Oc3ccc(OC(F)(F)F)cc3)cc2OC1C(F)(F)F (centres unmarked) and give its measured melting point.
Result: 198 to 199.2 °C

* * *

# assay_system: COX-1 (UniProt P23219)
observable: IC50 (µM)

- compound: "CCOC(=O)C1=Cc2cc(N)ccc2OC1C(F)(F)F (stereo not shown)"
  assay_system: "COX-1 (UniProt P23219)"
  unit_of_measurement: "µM"
  recorded_result: 11

P. O=C(O)C1=Cc2cc(Cl)c(Oc3ccc(Cl)cc3Br)cc2OC1C(F)(F)F (stereo not shown)
Q. Cc1cc2c(cc1Cl)C=C(C(=O)O)C(C(F)(F)F)S2 (stereo not shown)
Query: Lower value for measured IC50? Options: P , Q Kindly state the label of the option you pick.
Result: P

* * *

IC50: recorded values
# assay_system: COX-2 (UniProt P35354)
# Sequence (P35354 1-604): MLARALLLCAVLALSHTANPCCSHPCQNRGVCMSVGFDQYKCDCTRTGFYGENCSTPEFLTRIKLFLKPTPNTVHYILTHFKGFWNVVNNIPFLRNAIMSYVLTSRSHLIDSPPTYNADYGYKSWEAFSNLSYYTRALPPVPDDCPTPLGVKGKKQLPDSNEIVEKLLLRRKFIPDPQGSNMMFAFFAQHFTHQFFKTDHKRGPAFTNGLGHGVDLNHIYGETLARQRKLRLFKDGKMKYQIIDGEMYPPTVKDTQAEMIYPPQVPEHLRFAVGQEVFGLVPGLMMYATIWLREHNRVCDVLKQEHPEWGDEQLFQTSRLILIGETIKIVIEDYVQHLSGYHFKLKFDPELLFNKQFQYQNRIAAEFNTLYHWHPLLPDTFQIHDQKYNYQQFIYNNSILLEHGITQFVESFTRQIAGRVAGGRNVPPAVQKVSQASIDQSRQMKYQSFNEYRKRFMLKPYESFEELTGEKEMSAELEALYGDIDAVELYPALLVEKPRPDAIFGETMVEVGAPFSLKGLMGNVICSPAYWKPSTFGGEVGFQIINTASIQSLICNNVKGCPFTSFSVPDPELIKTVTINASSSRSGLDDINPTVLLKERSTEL
# protocol_notes: Assay for COX-2 activity (PGE2 ELISA)
# stated_conditions: read-out: COX-2 IC50; 10–20 minutes pre-incubation, reaction stopped after ten minutes, pH 8.0

Observe how each entry below is paired with its result.
- compound: "O=C(O)C1=Cc2cc(Cl)c(Cl)cc2SC1C(F)(F)F (stereo not drawn) [Example 154]"
  assay_system: "COX-2 (UniProt P35354)"
  IC50: "< 100 nM"
- compound: "O=C(O)C1=Cc2cc(Oc3ccc(C(F)(F)F)cc3)ccc2OC1C(F)(F)F (stereo not drawn) [Example 101]"
  assay_system: "COX-2 (UniProt P35354)"
  IC50: "< 100 nM"

Kindly consider the entry below.
Query: Consider the compound COc1ccc(Oc2ccc3c(c2)C=C(C(=O)O)C(C(F)(F)F)O3)cc1Cl (stereo not drawn) [Example 9] and give its measured IC50.
Result: < 100 nM

* * *

observable: melting point

- compound: "O=C(O)C1=Cc2cc(Cl)cc(C#Cc3ccccc3)c2OC1C(F)(F)F (stereo not shown)"
  melting point: "190.1 to 192.1 °C"

Kindly consider the entry below.
Query: Consider the compound O=C(O)C1=Cc2cc(S(=O)(=O)N3CCOCC3)ccc2OC1C(F)(F)F (stereo not shown) and give its measured melting point.
Result: 215.2 to 219.3 °C

* * *

pIC50: recorded values
# assay_system: COX-2 (UniProt P35354)
# protocol_notes: Assay for COX-2 activity (PGE2 ELISA)
# stated_conditions: read-out: COX-2 IC50; 10–20 minutes pre-incubation, reaction stopped after ten minutes, pH 8.0
pIC50: −log10 of the molar value.

Observe how each entry below is paired with its result.
- compound: "Cc1cc2c(cc1Cl)C=C(C(=O)O)C(C(F)(F)F)S2 (stereo not drawn) [Example 152]"
  pIC50: "> 7.00"
- compound: "O=C(O)C1=Cc2cc(SC(F)(F)F)ccc2SC1C(F)(F)F (stereo not drawn) [Example 155]"
  pIC50: "> 7.00"

Kindly consider the entry below.
Query: Consider the compound O=C(O)C1=Cc2c(ccc3oc4ccccc4c23)OC1C(F)(F)F (stereo not drawn) [Example 106] and give its measured pIC50.
Result: > 7.00

* * *

melting point: recorded values

Observe how each entry below is paired with its result.
- molecule: "N#Cc1ccc(CN2c3ccc(Cl)cc3C=C(C(=O)O)C2C(F)(F)F)cc1 (stereo not shown) [Example 169]"
  melting point: "258 to 260 °C"
- molecule: "O=C(O)C1=Cc2c(ccc3oc4ccccc4c23)OC1C(F)(F)F (stereo not shown) [Example 106]"
  melting point: "253.5 to 256 °C"
- molecule: "CCc1cc(Cl)cc2c1OC(C(F)(F)F)C(C(=O)O)=C2 (stereo not shown) [Example 29]"
  melting point: "197.2 to 199.1 °C"
- molecule: "O=C(O)C1=Cc2cc(Cl)cc(I)c2OC1C(F)(F)F (stereo not shown) [Example 73]"
  melting point: "220 to 223 °C"
- molecule: "O=C(O)C1=Cc2cc(-c3ccc(Cl)cc3)ccc2OC1C(F)(F)F (stereo not shown) [Example 137]"
  melting point: "212 to 213 °C"
- molecule: "O=C(O)C1=C(c2cccs2)c2cc(Cl)ccc2OC1C(F)(F)F (stereo not shown) [Example 144]"
  melting point: "200.8 to 206.7 °C"

Query: Consider the molecule O=C(O)C1=Cc2cc(Br)cc(F)c2OC1C(F)(F)F (stereo not shown) [Example 130] and give its measured melting point.
Result: 206 to 208 °C

* * *

# assay_system: UniProt P35354
# Sequence (P35354 1-604): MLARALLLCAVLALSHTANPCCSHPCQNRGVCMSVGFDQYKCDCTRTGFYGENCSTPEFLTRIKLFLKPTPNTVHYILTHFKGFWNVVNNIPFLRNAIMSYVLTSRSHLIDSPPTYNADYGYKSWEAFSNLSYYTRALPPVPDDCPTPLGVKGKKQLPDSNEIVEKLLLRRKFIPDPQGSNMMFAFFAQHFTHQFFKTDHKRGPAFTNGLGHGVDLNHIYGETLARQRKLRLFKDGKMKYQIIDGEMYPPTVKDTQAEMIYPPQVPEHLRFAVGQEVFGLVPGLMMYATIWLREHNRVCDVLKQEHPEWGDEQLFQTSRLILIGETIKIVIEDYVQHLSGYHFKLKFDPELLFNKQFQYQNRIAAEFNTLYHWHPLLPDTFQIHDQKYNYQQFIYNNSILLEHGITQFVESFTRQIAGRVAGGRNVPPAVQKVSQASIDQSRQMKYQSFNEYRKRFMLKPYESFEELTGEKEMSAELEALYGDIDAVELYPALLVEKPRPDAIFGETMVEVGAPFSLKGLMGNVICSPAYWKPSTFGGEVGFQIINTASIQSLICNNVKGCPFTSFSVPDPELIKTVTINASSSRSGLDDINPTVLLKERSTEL
# protocol_notes: Fast assay for COX-2 activity (PGE2 ELISA)
# Assay type: biochemical, human or murine
# stated_conditions: fast assay: 10 min pre-incubation at 25° C., reaction stopped after two minutes, pH 7.5
pIC50: −log10 of the molar value.
observable: pIC50

- compound: "O=C(O)C1=Cc2cccc(-c3ccccc3)c2OC1C(F)(F)F (stereo not shown) [Example 21]"
  recorded_result: 4.96

P. O=C(O)C1=Cc2cc(C(=O)c3ccc(O)cc3)ccc2OC1C(F)(F)F (stereo not shown) [Example 98]
Q. CC(C)(CO)c1cc2c(cc1Cl)C=C(C(=O)O)C(C(F)(F)F)O2 (stereo not shown) [Example 178]
R. CNS(=O)(=O)c1ccc2c(c1)C=C(C(=O)O)C(C(F)(F)F)O2 (stereo not shown) [Example 52]
Query: Order the records so the highest pIC50 appears first and the lowest last. To answer, arrange all of the labels according to the requested order.
Result: P, Q, R
(P: 5.70, Q: 5.08, R: 4.70)
